- assay-details: NF-kB promoter reporter activators, neuronal cells, dose response, cell-based, SH-SY5Y, luciferase (AID 1241)
- study-conditions: fold induction
outcome-measure: EC50

Query Cc1ccc(/C=C/C(=O)NC2=NCCS2)cc1 yields EC50 of 4320 nM

Query COc1ccc(-c2cc(=O)c3c(O)c(OC)c(O)cc3o2)cc1 yields EC50 of 2290 nM

Query C=CCNc1ncnc2c1cnn2-c1ccc(Cl)cc1 yields EC50 of 1820 nM
